System: SK-MEL-2
TEST_DESCRIPTION: NCI tumour cell line growth inhibition, 48 h
Active and inactive are the calls of the source. Cut-off read from the data, not from the text of the source: active = GI50 up to about 1.1 µM and inactive = higher.
RESULT_TYPE: GI50

Examples with their reported GI50 follow.
- COMPOUND: "COc1ccc2oc(-c3ccncc3)cc(=O)c2c1"
  ASSAY_TARGET: "SK-MEL-2"
  DATA_VALUE: "> 100 µM (inactive)"
- COMPOUND: "Brc1ccc(-c2cc(-c3ccc4c(c3)OCO4)c(-c3cccs3)n2Cc2ccccc2)cc1"
  ASSAY_TARGET: "SK-MEL-2"
  DATA_VALUE: "> 100 µM (inactive)"
- COMPOUND: "Cc1sc2nc3n(c(=O)c2c1C)N=CN(c1ccc(F)cc1)C3"
  ASSAY_TARGET: "SK-MEL-2"
  DATA_VALUE: "> 100 µM (inactive)"
- COMPOUND: "N=C(N)/N=C(\\N)Nc1cnccn1"
  ASSAY_TARGET: "SK-MEL-2"
  DATA_VALUE: "> 100 µM (inactive)"
- COMPOUND: "O=Cc1ccc(-c2cccc([N+](=O)[O-])c2)s1"
  ASSAY_TARGET: "SK-MEL-2"
  DATA_VALUE: "> 100 µM (inactive)"

The recorded GI50 for entry `COc1cc(/C=C(\NC(=O)c2ccccc2)c2nc3cc([N+](=O)[O-])ccc3[nH]2)cc(OC)c1OC` equals > 100 µM (inactive)

Kindly note the recorded GI50 for O=P1(c2ccccc2)C2=CCC=CC2C(c2ccccc2)N1Cc1ccccc1 (stereo unspecified) , which is 15.5 µM (inactive)

The measured GI50 associated with Oc1ccc([C@H]2c3c(O)cc(O)cc3C3c4c(cc(O)cc4[C@@H]2[C@H]2c4cc(O)cc5c4C(c4cc(O)cc(O)c4[C@@H]2c2ccc(O)cc2)[C@@H](c2ccc(O)cc2)O5)O[C@@H]3c2ccc(O)cc2)cc1 (stereo partly specified) reads 1.58 µM (inactive)

Reported GI50 of `CN(C)/C=N\c1cccc2cnccc12` : > 100 µM (inactive)

Just so you know, measured GI50 for `NC(=O)c1sc2nc3ccccc3n2c1N` came out at 30.2 µM (inactive)

Per the records, this compound ( COc1cc(S(=O)(=O)Nc2ccc(-c3csc(N4C(=O)CSC4c4ccccc4)n3)cc2)ccc1Cl (stereo unspecified) ) has GI50 equal to 37.2 µM (inactive)

Memo: `Nc1ccc2c(c1)C(=O)N1CCC[C@H]1C(=O)N2` , reported GI50: > 100 µM (inactive)

Looking up `Nc1c(-c2nc3ccccc3[nH]2)sc(=S)n1-c1ccc(Cl)cc1` , I found its GI50 recorded as 25.6 µM (inactive)

Input `CC1=N/C(=C\c2cccc3ccccc23)C(=O)O1` . Output GI50: > 100 µM (inactive)
